Data provenance is patent US20190308988A1.

- tested target: KOR (Homo sapiens)
- Sequence (P41145 whole entry): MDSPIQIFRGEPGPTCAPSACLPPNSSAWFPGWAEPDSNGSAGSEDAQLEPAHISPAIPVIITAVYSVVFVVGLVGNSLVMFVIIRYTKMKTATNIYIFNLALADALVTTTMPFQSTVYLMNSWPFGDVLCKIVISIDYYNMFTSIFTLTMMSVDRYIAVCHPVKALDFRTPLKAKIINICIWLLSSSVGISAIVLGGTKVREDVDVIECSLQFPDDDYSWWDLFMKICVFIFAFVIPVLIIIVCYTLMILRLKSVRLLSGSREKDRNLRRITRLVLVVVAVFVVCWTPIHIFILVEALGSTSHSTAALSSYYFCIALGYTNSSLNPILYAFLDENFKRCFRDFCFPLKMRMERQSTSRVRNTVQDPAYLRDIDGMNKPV
# label = rule met if IC50 < 40 nM else rule not met

structure | assigned label
C=C1CC[C@@]2(O)C3Cc4ccc(OCOC(=O)CCCCCCCCCCCCC)c5c4[C@@]2(CCN3CC2CC2)[C@H]1O5 | rule met
C=C1CC[C@@]2(O)C3Cc4ccc(OCOC(=O)OCCCCCCCCCCCC)c5c4[C@@]2(CCN3CC2CC2)[C@H]1O5 | rule met
C=C1CC[C@@]2(O)C3Cc4ccc(OC(=O)OCCCCCCCCCCCC)c5c4[C@@]2(CCN3CC2CC2)[C@H]1O5 | rule not met
C=C1CC[C@@]2(O)C3Cc4ccc(OCOC(=O)CCCCCCCCCCC)c5c4[C@@]2(CCN3CC2CC2)[C@H]1O5 | rule met
C=C1CC[C@@]2(O)C3Cc4ccc(OC(=O)OCCCCCCCCCCCCCCC)c5c4[C@@]2(CCN3CC2CC2)[C@H]1O5 | rule not met
C=C1CC[C@@]2(O)C3Cc4ccc(OC(=O)OCCCCCCCCCCCCC)c5c4[C@@]2(CCN3CC2CC2)[C@H]1O5 | rule not met
C=C1CC[C@@]2(O)C3Cc4ccc(OCOC(=O)OCCCCCCCCCCCCCC)c5c4[C@@]2(CCN3CC2CC2)[C@H]1O5 | rule not met
C=C1CC[C@@]2(O)C3Cc4ccc(OCOC(=O)OCCCCCCCCCCCCCCCC)c5c4[C@@]2(CCN3CC2CC2)[C@H]1O5 | rule not met
CCCCCCCCOC(=O)Oc1ccc2c3c1O[C@H]1C(=O)CC[C@@]4(O)C(C2)N(CC2CC2)CC[C@]314 | rule met
C=C1CC[C@@]2(O)C3Cc4ccc(OCOC(=O)CCCCCCCCCCCCCCC)c5c4[C@@]2(CCN3CC2CC2)[C@H]1O5 | rule met
